Biological target: Sentrin-specific protease 6 (Homo sapiens, UniProt Q9GZR1);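 also: Luminescence-based dose-response confirmatory assay of SENP6 inhibition, following up an ultra-high-throughput screen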
Sequence (Q9GZR1 whole entry): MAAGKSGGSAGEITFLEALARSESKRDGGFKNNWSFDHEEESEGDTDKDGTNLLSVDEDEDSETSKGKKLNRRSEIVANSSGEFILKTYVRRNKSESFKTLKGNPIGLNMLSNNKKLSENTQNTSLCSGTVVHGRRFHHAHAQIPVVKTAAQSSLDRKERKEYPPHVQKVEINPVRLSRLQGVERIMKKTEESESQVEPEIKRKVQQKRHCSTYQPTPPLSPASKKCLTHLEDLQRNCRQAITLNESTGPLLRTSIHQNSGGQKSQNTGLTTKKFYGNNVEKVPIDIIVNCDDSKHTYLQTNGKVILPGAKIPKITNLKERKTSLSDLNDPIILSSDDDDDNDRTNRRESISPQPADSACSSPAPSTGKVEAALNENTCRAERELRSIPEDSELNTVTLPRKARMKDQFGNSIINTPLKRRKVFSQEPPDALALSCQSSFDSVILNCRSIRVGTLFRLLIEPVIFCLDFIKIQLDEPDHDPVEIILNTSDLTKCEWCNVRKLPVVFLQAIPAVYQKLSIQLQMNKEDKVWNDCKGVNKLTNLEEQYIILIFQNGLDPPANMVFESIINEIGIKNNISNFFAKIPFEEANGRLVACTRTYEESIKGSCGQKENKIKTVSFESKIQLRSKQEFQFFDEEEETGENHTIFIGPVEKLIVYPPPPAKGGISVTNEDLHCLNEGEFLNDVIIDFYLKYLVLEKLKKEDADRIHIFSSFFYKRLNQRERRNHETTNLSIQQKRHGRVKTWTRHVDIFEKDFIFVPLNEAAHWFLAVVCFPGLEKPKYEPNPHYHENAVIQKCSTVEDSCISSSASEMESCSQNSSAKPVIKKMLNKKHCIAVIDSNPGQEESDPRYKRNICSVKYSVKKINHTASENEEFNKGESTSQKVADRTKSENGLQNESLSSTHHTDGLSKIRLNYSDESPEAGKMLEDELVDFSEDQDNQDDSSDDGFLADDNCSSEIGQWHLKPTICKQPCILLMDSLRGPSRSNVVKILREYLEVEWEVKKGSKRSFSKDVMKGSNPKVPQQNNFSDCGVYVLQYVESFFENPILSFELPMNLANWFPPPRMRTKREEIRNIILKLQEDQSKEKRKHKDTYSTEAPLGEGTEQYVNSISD
Assay type: functional
Active and inactive are the calls of the source.
Select the correct class. Options are active, inactive and nothing else.

[[record]]
molecule = "O=C(Nc1ccc2c(c1)CCC2)c1ccc(Br)s1"
qualitative_label = "active"

[[record]]
molecule = "Fc1ccccc1COc1ccc(C(=S)N2CCCC2)cc1"
qualitative_label = "active"

[[record]]
molecule = "Cc1ccc2nc(-c3cccnc3SCC(=O)N3c4ccccc4CC3C)[nH]c2c1 (stereo unspecified)"
qualitative_label = "inactive"


Fill in: this test's call for "Cc1ccc(/C=N/OC(=O)c2nn(C)cc2Cl)cc1" is ___ active

Fill in: this test's call for "O=C(COC(=O)c1ccc([N+](=O)[O-])s1)Nc1ccc(F)cc1" is ___ active

Fill in: this test's call for "COc1cccc(-c2nnc(-c3ccccc3[N+](=O)[O-])o2)c1" is ___ inactive

----------
Biological target: Calpain-2 catalytic subunit (Sus scrofa, UniProt P43367)
Sequence (P43367 whole entry): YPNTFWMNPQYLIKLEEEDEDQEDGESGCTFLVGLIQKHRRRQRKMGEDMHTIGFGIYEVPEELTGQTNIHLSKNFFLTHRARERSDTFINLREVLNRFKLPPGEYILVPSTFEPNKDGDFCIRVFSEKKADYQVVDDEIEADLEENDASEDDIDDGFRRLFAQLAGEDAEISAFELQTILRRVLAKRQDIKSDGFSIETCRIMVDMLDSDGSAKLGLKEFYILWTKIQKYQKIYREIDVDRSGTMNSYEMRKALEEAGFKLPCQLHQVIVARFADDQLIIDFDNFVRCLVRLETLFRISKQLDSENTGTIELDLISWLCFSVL
Assay: pig calpain II inhibitor potency, dose response, biochemical, fluorogenic peptide substrate (AID 1420)
Assay type: functional
value-type: IC50

Some molecules with known IC50 results, for comparison:
[[record]]
molecule = "O=C(Cc1ccc(Cl)cc1)Nc1ncc([N+](=O)[O-])s1"
value = "< 0.4 µM (not active)"

[[record]]
molecule = "COc1ccc(C(NC(=O)c2ccc(-c3ccccc3)cc2)c2ccccc2)cc1 (configuration not stated)"
value = "> 50 µM (not active)"

[[record]]
molecule = "CN(CCc1ccccn1)C(=S)NC(=O)c1ccco1"
value = "19 µM (not active)"

[[record]]
molecule = "O=c1cc(N2CCCCC2)c(-c2ccccc2)nn1Cc1cccc(F)c1"
value = "> 50 µM (not active)"

[[record]]
molecule = "CC(C)c1onc(C(=O)Nc2cccnc2Cl)c1[N+](=O)[O-]"
value = "22.5 µM (not active)"


Value lookup for IC50; key = "COc1cccc(CNc2ccc([N+](=O)[O-])cc2C)c1" 41 µM (not active)

Value lookup for IC50; key = "CC(/C=C(\O)c1ccc(C)cc1)=N\c1cccc(O)c1" 4.68 µM (not active)

Value lookup for IC50; key = CC(CNC(=S)Nc1cc(F)cc(F)c1)CSc1ccc(Cl)cc1 (configuration not stated) 13.5 µM (not active)

Value lookup for IC50; key = "Cc1ccc(NC(=O)CSc2nsc(SCC(=O)Nc3ccc(C)cc3C)c2C#N)c(C)c1" > 50 µM (not active)

Value lookup for IC50; key = Cc1ccc(CNC(=O)c2ccc3c(=O)n(CC4CCCO4)c(=S)[nH]c3c2)cc1 (configuration not stated) 1.19 µM (not active)

Value lookup for IC50; key = "Cc1cc(-c2ccccc2)nc(Oc2ccc(C(C)(C)C)cc2)c1S(C)(=O)=O" > 50 µM (not active)

Value lookup for IC50; key = "Cc1cc(NC(=O)c2ccc3c(c2)C(=O)N(Cc2cccnc2)C3=O)no1" 13.7 µM (not active)

----------
As shown below, each of these molecules has a reported IC50 value.
Target: Prothrombin (Bos taurus, UniProt P00735)
Test: thrombin inhibition, dose response, biochemical, fluorescence polarization, uHTS hits (AID 602369)
Format: functional
The source made the active and inactive calls.

Some molecules with known IC50 results, for comparison:
[[record]]
molecule = "CN1CCN(C(c2ccc(Cl)cc2)c2cc(Cl)c3cccnc3c2O)CC1 (centres undefined)"
assayed_system = "Prothrombin (Bos taurus, UniProt P00735)"
value = "75.6 µM (active)"

[[record]]
molecule = "Cc1cc(O)nc(NN/C=C2/C(=O)N(c3ccccc3)C(=O)c3ccccc32)n1"
assayed_system = "Prothrombin (Bos taurus, UniProt P00735)"
value = "37.2 µM (active)"

[[record]]
molecule = "Cn1c(=O)c2cc(S(=O)(=O)NC(C(=O)Nc3cccc(F)c3)c3ccccc3)ccc2n(C)c1=O (centres undefined)"
assayed_system = "Prothrombin (Bos taurus, UniProt P00735)"
value = "> 100 µM (inactive)"


Shift focus to the following entry.
Value lookup for IC50; key = "O=C(N/N=C/c1cc(Br)cc(Cl)c1O)c1ccc2c(c1)OCO2" 33.8 µM (active)
